Each entry below lists one item and its recorded GI50 value.
System: Ba/F3 cells expressing L858R/T790M/C797S (EGFR-LTC)
Assay: Growth inhibition (GI50) of Ba/F3 cells expressing L858R/T790M/C797S (EGFR-LTC), Celltiter glo
Assay type: cell-based
Conditions: Mus musculus, BaF3, 72 h

Examples with their reported GI50 follow.
# recordSmiles, target, GI50
measured = [
    ("COc1cc(N2CCC(N3CCN(C)CC3)CC2)ccc1Nc1ncc(Cl)c(Nc2cc(Cl)c(Cl)cc2NC(C)=O)n1", "Ba/F3 cells expressing L858R/T790M/C797S (EGFR-LTC)", "100 to 500 nM"),
    ("COc1nc(N2CCC(N3CCOCC3)CC2)ccc1Nc1ncc(Br)c(Nc2ccc(F)cc2NS(C)(=O)=O)n1", "Ba/F3 cells expressing L858R/T790M/C797S (EGFR-LTC)", "2000 to 10000 nM"),
    ("COc1cc(N2CCC(N3CCN(C)CC3)CC2)c(Cl)cc1Nc1ncc(Cl)c(Nc2cc(Cl)c(F)cc2NS(C)(=O)=O)n1", "Ba/F3 cells expressing L858R/T790M/C797S (EGFR-LTC)", "25 to 100 nM"),
]

Read the next record carefully.
Q: Requested read-out: GI50. Entry: CN1CCN(C2CCN(c3ccc(Nc4ncc(Br)c(Nc5cc6c(cc5NS(C)(=O)=O)CCO6)n4)cc3F)CC2)CC1
A: 1 to 25 nM

* * *

Test system: Ba/F3 cells expressing L858R/T790M/C797S (EGFR-LTC)
Assay: Growth inhibition (GI50) of Ba/F3 cells expressing L858R/T790M/C797S (EGFR-LTC), Celltiter glo
Type: cell-based
Settings: Mus musculus, BaF3, 72 h
recordedEndpoint: GI50

Examples with their reported GI50 follow.
# molecule, GI50
measured = [
    ("CN1CCN(C2CCN(c3ncc(Nc4ncc(Cl)c(Nc5ccc6nccnc6c5P(C)(C)=O)n4)cc3F)CC2)CC1 [Example 124]", "25 to 100 nM"),
    ("CCc1cc(Nc2ncc(Br)c(Nc3cc4c(cc3N(C)S(C)(=O)=O)CCO4)n2)c(OC)cc1N1CCC(N2CCN(C)CC2)CC1 [Example 254]", "25 to 100 nM"),
    ("Cc1cc(Nc2ncc(Cl)c(Nc3cc(Cl)ccc3NS(C)(=O)=O)n2)c(Cl)cc1N1CCC(N2CCC(N(C)C)C2)CC1 (stereo not shown) [Example 157]", "25 to 100 nM"),
    ("COc1cc(N2CCC(N3CCN(C)CC3)CC2)c(Cl)cc1Nc1ncc(Cl)c(Nc2ccc3c(c2)N(C)CC3)n1 [Example 273]", "100 to 500 nM"),
    ("COc1nc(N2C[C@@H](C)N(C)[C@@H](C)C2)ccc1Nc1ncc(Cl)c(Nc2ccc(F)cc2NS(C)(=O)=O)n1 [Example 20]", "500 to 2000 nM"),
    ("CN1CCN(C2CCN(c3ccc(Nc4ncc(Cl)c(Nc5cc(Cl)c(Cl)cc5NS(C)(=O)=O)n4)cc3F)CC2)CC1 [Example 101]", "100 to 500 nM"),
]

Read the next record carefully.
Q: Can you look up GI50 on Ba/F3 cells expressing L858R/T790M/C797S (EGFR-LTC) for COc1cc(N2CCC(N3CCN(C)CC3)CC2)c(Cl)cc1Nc1ncc(Br)c(Nc2cc(Cl)ccc2NS(C)(=O)=O)n1 [Example 88] ?
A: 1 to 25 nM
